Target: Sialic acid-binding Ig-like lectin 9 (Homo sapiens) (UniProt Q9Y336)
Sequence (Q9Y336 whole entry): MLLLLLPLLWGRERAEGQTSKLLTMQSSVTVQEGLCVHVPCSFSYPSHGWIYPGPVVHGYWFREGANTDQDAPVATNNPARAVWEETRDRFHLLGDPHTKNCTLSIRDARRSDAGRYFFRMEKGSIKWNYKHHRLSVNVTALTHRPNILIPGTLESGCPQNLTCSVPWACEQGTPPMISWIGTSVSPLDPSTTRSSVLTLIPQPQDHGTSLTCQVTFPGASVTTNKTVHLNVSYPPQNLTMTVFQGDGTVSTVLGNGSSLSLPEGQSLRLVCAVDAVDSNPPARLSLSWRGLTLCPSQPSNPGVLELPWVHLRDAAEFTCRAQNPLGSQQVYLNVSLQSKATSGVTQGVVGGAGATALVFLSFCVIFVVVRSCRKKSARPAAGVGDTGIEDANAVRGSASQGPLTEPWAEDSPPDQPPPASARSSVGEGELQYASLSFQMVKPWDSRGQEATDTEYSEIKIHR
Assay: Hs-Siglec9 ALPHAscreen SOP 20170721
Design: scale not given: direction of the effect not stated beside the values
Conditions: 10 µM
Entries annotated with measured Percent Effect
OBSERVED_PROPERTY: Percent Effect (%)

COMPOUND: Cc1csc(C2CCCN(C(=O)c3cc(Cl)c[nH]3)C2)n1 (configuration not stated)
OBSERVED_PROPERTY: Percent Effect
MEASURE_UNIT: %
QUANTITATIVE_READOUT: 9.99
//
COMPOUND: CC(C)(C)N1CC(C(=O)N2CCN(CCn3cccc3)CC2)CC1=O (configuration not stated)
OBSERVED_PROPERTY: Percent Effect
MEASURE_UNIT: %
QUANTITATIVE_READOUT: 27.1
//
COMPOUND: CCOc1ccccc1C(CC(=O)Nc1ccccc1F)NC(C)=O (configuration not stated)
OBSERVED_PROPERTY: Percent Effect
MEASURE_UNIT: %
QUANTITATIVE_READOUT: 13.4
//
COMPOUND: Cn1cc(CN2CCCN(C(=O)c3cc(Cl)cn3C)CC2)cn1
OBSERVED_PROPERTY: Percent Effect
MEASURE_UNIT: %
QUANTITATIVE_READOUT: -2.03
//
COMPOUND: O=C(Cn1ccc2ccc(Br)cc21)NC[C@@H]1CCCN2CCCC[C@H]12
OBSERVED_PROPERTY: Percent Effect
MEASURE_UNIT: %
QUANTITATIVE_READOUT: -2.99
//
COMPOUND: Cc1noc(CCCC(=O)NC(C)c2cn(-c3ccccc3)nn2)n1 (configuration not stated)
OBSERVED_PROPERTY: Percent Effect
MEASURE_UNIT: %
QUANTITATIVE_READOUT: 6.5
//
COMPOUND: O=C(Cn1c(=O)n(Cc2ccco2)c2ncccc21)NC1CCCCC1
OBSERVED_PROPERTY: Percent Effect
MEASURE_UNIT: %
QUANTITATIVE_READOUT: 11.5
//
COMPOUND: CCc1noc(C)c1C(=O)N(C)Cc1ncc(C)c(OC)c1C
OBSERVED_PROPERTY: Percent Effect
MEASURE_UNIT: %
QUANTITATIVE_READOUT: -5.08
//
COMPOUND: CCNC(=O)CN1CCCN(C(=O)C2CCCc3[nH]ncc32)CC1 (configuration not stated)
OBSERVED_PROPERTY: Percent Effect
MEASURE_UNIT: %
QUANTITATIVE_READOUT: 6.84
//
COMPOUND: CCS(=O)(=O)N1CCC(c2nnc(Cn3cccn3)n2C2CC2)CC1
OBSERVED_PROPERTY: Percent Effect
MEASURE_UNIT: %
QUANTITATIVE_READOUT: -1
//
COMPOUND: CCn1c(Cn2cncn2)nnc1C1CCN(Cc2ccncc2)CC1
OBSERVED_PROPERTY: Percent Effect
MEASURE_UNIT: %
QUANTITATIVE_READOUT: 1.13
//
COMPOUND: CCC1c2cccn2CCN1C(=O)c1ccc2nonc2c1 (configuration not stated)
OBSERVED_PROPERTY: Percent Effect
MEASURE_UNIT: %
QUANTITATIVE_READOUT: -10.2
//
COMPOUND: Cc1cc(CNC(=O)N2CCN(c3ccccc3)CC2)no1
OBSERVED_PROPERTY: Percent Effect
MEASURE_UNIT: %
QUANTITATIVE_READOUT: 0.348
//
COMPOUND: CCn1cnnc1C1CCN(C(=O)COc2ccccc2)CC1
OBSERVED_PROPERTY: Percent Effect
MEASURE_UNIT: %
QUANTITATIVE_READOUT: -2.33
//
COMPOUND: Cc1ccc(CC(=O)N2CCOC(c3nc(C)n[nH]3)C2)cn1 (configuration not stated)
OBSERVED_PROPERTY: Percent Effect
MEASURE_UNIT: %
QUANTITATIVE_READOUT: 28.2
//
COMPOUND: Cc1nn(C)c(Cl)c1C1CCCN1C(=O)c1cc[nH]n1 (configuration not stated)
OBSERVED_PROPERTY: Percent Effect
MEASURE_UNIT: %
QUANTITATIVE_READOUT: 13.1
//
COMPOUND: O=C(CN1CCN(CC(O)C2CC2)CC1)NCc1ccc(F)cc1 (configuration not stated)
OBSERVED_PROPERTY: Percent Effect
MEASURE_UNIT: %
QUANTITATIVE_READOUT: 0.218
